System: K4 kissing-loop RNA reporter;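 further: bound reporter read as fluorescence of individual clusters on recovered sequencing chips by microscopy, with normalized cluster intensities fitted with a binding model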
protocol details: apparent KD of K4 kissing-loop reporter; higher = weaker reporter binding
test parameters: Eterna round: R107; input ligand: none
result type: apparent KD of K4 kissing-loop reporter (nM)
Answers are plain numbers, in nM.

Observe how each entry below is paired with its result.
[[record]]
sequence_entry = "UUACUGCCCAGUGAUGUUGGGUAUCGGCGGCGAGGACCGGUACGGCCGCCACUCGGCGCACAGGCGGAGUGAUGUUUCGCUUAAA [Same State Tryptophan A GF 12]"
display_unit = "nM"
numeric_result = 627

[[record]]
sequence_entry = "GAUGUUUGCCGAAGGAGCGAGUAUUCGCCAGUGAUGUUGGUGAGAUAUACACGUAUCAGUGCUCAGGUAGGUCGCGGCGCUUGUU [Same State Arginine B GF 27]"
display_unit = "nM"
numeric_result = 129

[[record]]
sequence_entry = "AGGCACGAGCAAGGAUAUCGAGUAGAGUGAUGUUCUGCCUGGGUUGGCCCGAAAGGGCCUUCCCAGCGAGAAGGUGCUCGUGCCU [#2 Same State - FMN A Attempt #9 (HarryS)]"
display_unit = "nM"
numeric_result = 766


Provide reported apparent KD of K4 kissing-loop reporter for each item, in the same order as listed.
1. CGUUUAUAGCAGGAUACCAGUACGGAUAAGGUACGUUAAUAGUAGAGUGAUGUUCUAAAGUACCCUUGGCAGCUUAGAGUGAGUG [#20 K4 Theophylline B Exclusion]
2. GCAGUGAUGUUGCGGAUGUACAGUGGCGUGCGAGGACCGGUACGGCCGCCACUCGUACAGAGCCAGCUAAUACAUCGAUAGGUGA [whbob_SS_Tryp_A_m6]
3. UCCUGCAAUCUGCCACGAAAGUGGGUUGAUACCAGAGUCGAAAGACUCCCUUGGCAGCGAGUGAUGUUCGUUGCAGGUAAAUAAA [MatMod 8 - Jieux - Exclusion - Theophylline A]

Reply text:
142
239
200
